- assay-procedure: amyloid nucleation score (Sup35N fusion, yeast selection) (log enrichment); library NNK3; higher = more nucleation; inactive = no reads after selection;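 also: zero at mode of non-aggregating sequences after 7 days selection at 30°C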
test-readout: amyloid nucleation score

Known amyloid nucleation score results, listed for orientation:
Query: Look up and state reported amyloid nucleation score for ASFISCSIMYYFIVFCL
Reply: inactive

Query: Return reported amyloid nucleation score. Input sequence: NTVNWSFFVMVLSFSSRETV
Reply: inactive

Query: Please report the measured amyloid nucleation score for QYLHAGGHVIVGTWYEVNMG
Reply: 1.36

Query: Tell me amyloid nucleation score reported for FAYQFRLVDTSLSDF
Reply: inactive

Query: Give the value of amyloid nucleation score reported for the following: RYMFWQWRGEL
Reply: 0.958

---
Query: Look up amyloid nucleation score of KLLSSGFMMFWASYQTGYWR and report it.
Reply: inactive

Query: Please look at this sequence and report its amyloid nucleation score: KRLFVTFFLSSLRGNILMWG
Reply: inactive

Query: Give recorded amyloid nucleation score. SGGKWFIFRCT
Reply: inactive

Query: For the sequence LQPKLGIT , report amyloid nucleation score.
Reply: inactive

Data provenance is the supplement of paper PMC12042874.
